- Tested on: MDA-MB-468 spheroids with HUVEC/MSC, viability
- assay.method.text: Anticancer human tumor MDA-MB-468 cell line growth inhibition [PI3K];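 note: spheroids exposed to agents for seven days before readout; 100% = DMSO vehicle control viability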
- condition.description: second compound 0.0316 µM; first compound 0.00949 µM; stronger effect = lower value
result.type: viability, T/C

INSERT INTO assay_data (compound, observed_measurement) VALUES
  ('Cn1cnc2c(F)c(Nc3ccc(Br)cc3Cl)c(C(=O)NOCCO)cc21 + CC(Nc1ccc2c(c1)OCCn1cc(N3C(=O)OCC3C(F)F)nc1-2)C(N)=O', '103%'),
  ('Cn1cnc2c(F)c(Nc3ccc(Br)cc3Cl)c(C(=O)NOCCO)cc21 + COc1c(OCCCN2CCOCC2)ccc2c3n(c(=NC(=O)c4cnc(N)nc4)nc12)CCN3', '68%'),
  ('Cn1cnc2c(F)c(Nc3ccc(Br)cc3Cl)c(C(=O)NOCCO)cc21 + Cc1nc(NC(=O)N2CCCC2C(N)=O)sc1-c1ccnc(C(C)(C)C(F)(F)F)c1', '75.3%'),
  ('Cn1cnc2c(F)c(Nc3ccc(Br)cc3Cl)c(C(=O)NOCCO)cc21 + CC(Nc1ncnc2nc[nH]c12)c1cc2cccc(Cl)c2c(=O)n1-c1ccccc1', '88.8%');
